Reference for the values: PubChem BioAssay (NCI)

# System: SF-539 CNS
# Test summary: NCI tumour cell line growth inhibition, 48 h
Property: TGI; scope: individual molecules

Molecule | Test system | TGI
O=c1n(-c2ccccc2)c(=O)n2n1C1C=CC2CCCCCC1 | SF-539 CNS | > 100 µM

Moving on to another molecule below.
Measured TGI, CC1(C)CC(=O)c2c(nc3c(ccc4ccccc43)c2-c2ccc(NC(=O)CCCC(=O)Nc3ccc(-c4c5c(nc6c4ccc4ccccc46)CC(C)(C)CC5=O)cc3)cc2)C1 : > 100 µM

###

# Test system: SNB-75 CNS
# Test summary: NCI tumour cell line growth inhibition, 48 h
Readout name: GI50

Measured GI50 for this entry N.N.NCCCCCCN.O=C([O-])CCl.O=C([O-])CCl.O=C([O-])CCl.O=C([O-])CCl.[Pt+4].[Pt+4] on SNB-75 CNS: 8340 nM

Record COc1ccc(F)cc1/C=C/C(=O)/C=C(/C=C/c1cc(F)ccc1OC)OB(F)F has SNB-75 CNS GI50 equal to 1610 nM

// compound COc1cc(NC(=O)c2ccc(C(F)(F)F)nc2Nc2ccc(Cl)cc2C)cc(OC)c1OC , assay SNB-75 CNS, GI50 value: 2780 nM

Per the reported SNB-75 CNS data, CCC[CH2][Sn]([CH2]CCC)([O]C(=O)c1ccc(C)c(N)c1)[O]C(=O)c1ccc(C)c(N)c1 has GI50 of 502 nM

Entry O=C(NC1CCC(Br)CC1)C1CCCC(S(=O)(=O)NC2CCCCC2)C1 (stereo not given) ; assay system SNB-75 CNS; GI50 recorded at 17000 nM

###

Each entry below carries its recorded TGI.
# System: BT-549 breast
# Test summary: NCI tumour cell line growth inhibition, 48 h
Write the answer as a number in µM, unit excluded.

Compound | TGI, µM
CCn1ncc(Oc2c(Cl)cc(N)cc2Cl)c(Cl)c1=O | 91.1
COc1ccc(CN2C(=O)C(Cl)=C(Nc3cccc(O)c3)C2=O)cc1 | 45.4
CC(C)=NNc1ncnc2c1ncn2C1OC(CO)C(O)C1O (stereo unspecified) | 15.4
Cn1c2ccccc2c2ccc3c(c21)C(=O)C=CC3=O | 18.9

# ---- query compound ----
Recorded TGI (compound c1ccc(CSSSCc2ccccc2)cc1 ): 19.8

###

# Tested on: HOP-92 NSCLC
# Test summary: NCI tumour cell line growth inhibition, 48 h; in the data active = GI50 below about 0.43 µM; inactive = the rest
Entry note: the call must match one of true (1) for active, false (0) for inactive

Reference set (8 entries):
Compound | Test system | Label
COc1cc(-c2nn(-c3ccc(NC(=O)NCCCNC(=O)c4ccccc4)cc3)cc2-c2ccncc2)ccc1Cl | HOP-92 NSCLC | false (0)
CCCCCCCCCCCC[C@H](O)[C@H]1CC[C@H]([C@H](O)CCCC[C@H](O)CCCCC[C@@H](O)CC2=C[C@H](C)OC2=O)O1 | HOP-92 NSCLC | false (0)
CC(C)=NNc1ncnc2c1ncn2C1OC(CO)C(O)C1O (stereo unspecified) | HOP-92 NSCLC | false (0)
COc1cccc2cc(N(C)c3ncnc4ccccc34)ccc12 | HOP-92 NSCLC | true (1)
CCN(CC)c1ccc2c(cc1=O)[C@@H](NC(C)=O)CCc1cc(OC)c(OC)c(OC)c1-2 | HOP-92 NSCLC | false (0)
O=C(O)c1sccc1O | HOP-92 NSCLC | false (0)
COc1ccc(-c2c(C#N)c(N)nc3c2COc2ccc(F)cc2-3)cc1OC | HOP-92 NSCLC | false (0)
Oc1ccc(-c2cn3ccsc3n2)cc1O | HOP-92 NSCLC | false (0)

Exercise: For this compound, state the assay outcome: Cc1cc(I)cc(CN(C)CCN2CCOCC2)c1O
Key: false (0)

Exercise: Per the assay record, what outcome was assigned to CC1SC(c2ccc(Cl)c(Cl)c2)N(NC(=O)C(O)c2ccccc2)C1=O (stereo unspecified) ?
Key: false (0)

Exercise: Could you kindly confirm the outcome this assay logged for Cn1c(-c2c(N)n(Cc3ccc(C(F)(F)F)cc3)c3nc(C#N)c(C#N)nc23)nc2ccccc21 ?
Key: false (0)
